Organism: Mus musculus
Method Summary: Selectivity ratio of Ki for CD1 mouse brain (minus cerebellum) CB1 receptor to Ki for CD1 mouse spleen CB2 receptor
Assay type: tissue-based
# note: exactly 60 is not below, so it is not satisfied; use satisfied for Ratio Ki strictly under it

Sample answers from the record:
INSERT INTO assay_data (molecule_smiles, class) VALUES
  ('Cc1cc2c(s1)Cc1c(C(=O)NN3CCCCCC3)nn(-c3ccc(Cl)cc3Cl)c1-2', 'not satisfied'),
  ('Cc1ccc(Cn2nc(C(=O)NN3CCCCC3)c3c2-c2c(C)csc2C3)cc1', 'satisfied'),
  ('Cc1csc2c1-c1c(c(C(=O)NC3CCCCC3)nn1-c1ccc(Cl)cc1Cl)C2', 'satisfied'),
  ('Cc1ccc(Cn2nc(C(=O)NN3CCCCCC3)c3c2-c2c(C)csc2C3)cc1', 'satisfied');

Given the entry Cc1cc2c(s1)Cc1c(C(=O)NC3CCCCC3)nn(-c3ccc(Cl)cc3Cl)c1-2 , would its reported Ratio Ki be below 60?
not satisfied

====

Target: Cannabinoid receptor 2 (Mus musculus, UniProt P47936)
Sequence (P47936 whole entry): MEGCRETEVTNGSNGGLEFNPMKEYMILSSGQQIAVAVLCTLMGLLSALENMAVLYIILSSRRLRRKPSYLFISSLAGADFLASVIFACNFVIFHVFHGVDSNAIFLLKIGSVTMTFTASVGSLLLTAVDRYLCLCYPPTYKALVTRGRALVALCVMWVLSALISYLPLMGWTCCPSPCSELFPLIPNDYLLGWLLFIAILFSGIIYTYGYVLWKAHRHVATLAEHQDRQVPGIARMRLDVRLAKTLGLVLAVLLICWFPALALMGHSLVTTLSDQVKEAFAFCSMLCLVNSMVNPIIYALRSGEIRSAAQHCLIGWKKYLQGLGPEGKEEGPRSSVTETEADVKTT
Method Summary: Displacement of [3H]-CP55940 from CD1 mouse spleen CB2 receptor by liquid scintillation counting
I'd appreciate it if you could supply Ki values for the items below.
Form entry: enter the amount, then its unit.

Please review the entries below; each comes with its answer.
INSERT INTO results (molecule_smiles, reported_measurement) VALUES
  ('Cc1cc2c(s1)Cc1c(C(=O)NN3CCCC3)nn(-c3ccc(Cl)cc3Cl)c1-2', '38.3 nM'),
  ('Cc1csc2c1-c1c(c(C(=O)NC3CCCCC3)nn1-c1ccc(Cl)cc1Cl)C2', '501 nM'),
  ('Cc1ccc(Cn2nc(C(=O)NC3CCCCC3)c3c2-c2c(C)csc2C3)cc1', '191 nM'),
  ('Cc1ccc(Cn2nc(C(=O)NN3CCCCCC3)c3c2-c2c(C)csc2C3)cc1', '69 nM'),
  ('Cc1csc2c1-c1c(c(C(=O)NN3CCOCC3)nn1-c1ccc(Cl)cc1Cl)C2', '747 nM');

Batch request: Ki per item, same order as input.
1. Cc1cc2c(s1)Cc1c(C(=O)NC3CCCCC3)nn(-c3ccc(Cl)cc3Cl)c1-2
2. Cc1cc2c(s1)Cc1c(C(=O)NN3CCCCC3)nn(-c3ccc(Cl)cc3Cl)c1-2
3. Cc1ccc(Cn2nc(C(=O)NN3CCOCC3)c3c2-c2c(C)csc2C3)cc1

1. 7.2 nM
2. 2.3 nM
3. 1760 nM

Origin of the recorded values: ChEMBL document CHEMBL3351751
